# system name: T1, TRCW5 antigen (CD3δε-Fc-Avi) (biotinylated (site not stated))
# T1 construct: also called recombinant CD3
# T1 sequence (chain, as listed by the source mutant limits assumed): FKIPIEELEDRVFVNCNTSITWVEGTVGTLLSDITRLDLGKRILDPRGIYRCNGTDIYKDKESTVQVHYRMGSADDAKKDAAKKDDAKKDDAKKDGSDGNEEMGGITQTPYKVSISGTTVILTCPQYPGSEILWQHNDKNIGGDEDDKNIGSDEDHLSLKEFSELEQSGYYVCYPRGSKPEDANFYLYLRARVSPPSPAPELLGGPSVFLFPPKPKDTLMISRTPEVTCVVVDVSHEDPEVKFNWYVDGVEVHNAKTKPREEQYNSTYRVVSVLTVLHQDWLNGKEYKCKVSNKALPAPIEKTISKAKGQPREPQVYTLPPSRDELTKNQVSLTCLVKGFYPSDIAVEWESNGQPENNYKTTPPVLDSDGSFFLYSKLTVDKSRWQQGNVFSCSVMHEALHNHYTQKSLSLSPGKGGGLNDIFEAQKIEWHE
# method summary: binding after heat
Items are presented alongside their recorded % Retained 55° C..
reported property: % Retained 55° C. (%)

INSERT INTO assay_data (binder, reported_property, experimental_result) VALUES
  ('CD3B2030 N106S (scFv) scFv: QVQLVQSGAEVKKPGSSVKVSCKASGYTFTRSTMHWVKQAPGQGLEWIGYINPSSAYTNYNQKFQGRVTLTADKSTSTAYMELSSLRSEDTAVYYCASPQVHYDYSGFPYWGQGTLVTVSSGGSEGKSSGSGSESKSTGGSEIVLTQSPATLSASPGERVTLSCSASSSVSYMNWYQQKPGQAPRRWIYDSSKLASGVPARFSGSGSGRDYTLTISSLEPEDFAVYYCQQWSRNPPTFGGGTKVEIK', '% Retained 55° C.', 64.6),
  ('CD3B2051 N106E (scFv) scFv: QVQLVQSGAEVKKPGSSVKVSCKASGYTFTRSTMHWVKQAPGQGLEWMGYINPSSAYTNYNQKFQGRVTLTADKSTSTAYMELSSLRSEDTAVYYCASPQVHYDYEGFPYWGQGTLVTVSSGGSEGKSSGSGSESKSTGGSEIVLTQSPATLSASPGERVTLSCSASSSVSYMNWYQQKPGQAPRRLIYDSSKLASGVPARFSGSGSGRDYTLTISSLEPEDFAVYYCQQWSRNPPTFGGGTKVEIK', '% Retained 55° C.', 78.4),
  ('CD3B2030 N106Q (scFv, also called CD3B2030 NtoQ) scFv: QVQLVQSGAEVKKPGSSVKVSCKASGYTFTRSTMHWVKQAPGQGLEWIGYINPSSAYTNYNQKFQGRVTLTADKSTSTAYMELSSLRSEDTAVYYCASPQVHYDYQGFPYWGQGTLVTVSSGGSEGKSSGSGSESKSTGGSEIVLTQSPATLSASPGERVTLSCSASSSVSYMNWYQQKPGQAPRRWIYDSSKLASGVPARFSGSGSGRDYTLTISSLEPEDFAVYYCQQWSRNPPTFGGGTKVEIK', '% Retained 55° C.', 110);
